Each entry below carries its reported log10 MIC.
test system: Acinetobacter baumannii; experiment: Antimicrobial activity against Acinetobacter baumannii JVAB01 expressing disrupted open reading frame orf3 mutant deficient in efflux pump CraA by Etest; type: functional
On a log10 scale: recorded MIC, unit µg/mL.

Examples with their reported log10 MIC follow.
molecule	assay-metric	number
CC[C@H]1OC(=O)[C@H](C)[C@@H](O[C@H]2C[C@@](C)(OC)[C@@H](O)[C@H](C)O2)[C@H](C)[C@@H](O[C@@H]2O[C@H](C)C[C@H](N(C)C)[C@H]2O)[C@](C)(O)C[C@@H](C)C(=O)[C@H](C)[C@@H](O)[C@]1(C)O [ERYTHROMYCIN]	log10 MIC	0.18
C[C@@H](O)[C@H]1C(=O)N2C(C(=O)O)=C(SCCNC=N)C[C@H]12 [IMIPENEM ANHYDROUS]	log10 MIC	-0.12

Here is the next item to consider.
Ask | // log10 MIC lookup, key: CCn1cc(C(=O)O)c(=O)c2ccc(C)nc21 [NALIDIXIC ACID]
Reply | 1.08
